# Tested on: expanded OPCs
# TEST SUMMARY: cells
# TEST CONTEXT: alamarBlue viability of expanded OPCs, compound at 10 µM, relative to DMSO control
QUANTITY KIND: 10 µM (% DMSO)

• OCCN(CCO)c1nc(N2CCCCC2)c2nc(N(CCO)CCO)nc(N3CCCCC3)c2n1 = 87.5
• COc1ccc([C@@H]2Sc3ccccc3N(CCN(C)C)C(=O)[C@@H]2OC(C)=O)cc1 = 48.7
• CCN(CC)CC#CCOC(=O)C(O)(c1ccccc1)C1CCCCC1 (stereo not drawn) [Oxybutynin, reference compound] = 57.5
• Nc1ccc(S(=O)(=O)c2ccc(N)cc2)cc1 = 99.0
• O=C(O)c1cc2ccccc2c(Cc2c(O)c(C(=O)O)cc3ccccc23)c1O.OCCOCCN1CCN(C(c2ccccc2)c2ccc(Cl)cc2)CC1 [Hydroxyzine pamoate salt] = 134.2
• CO/N=C(\C(=O)N[C@@H]1C(=O)N2C(C(=O)O)=C(COC(C)=O)CS[C@H]12)c1csc(N)n1 = 82.3
• CC1=C(CC(=O)O)c2cc(F)ccc2/C1=C\c1ccc([S+](C)[O-])cc1 (stereo not drawn) = 90.3
• CNCCC=C1c2ccccc2CCc2ccccc21 = 13.8
• CC(C)N(CCC(C(N)=O)(c1ccccc1)c1ccccn1)C(C)C (stereo not drawn) [Disopyramide] = 88.7
• O=C1c2c(O)ccc(O)c2C(=O)c2c(NCCNCCO)ccc(NCCNCCO)c21 = 7.8
• O=c1[nH]cc(F)c(=O)[nH]1 = 12.2
• CNCCCN1c2ccccc2CCc2ccccc21 = 16.4
• CC(N)C12CC3CC(CC(C3)C1)C2 (stereo not drawn) = 32.9
• Brc1c(NC2=NCCN2)ccc2nccnc12 = 95.4
• c1ccc2c(c1)CCCC2C1=NCCN1 (stereo not drawn) = 187.5
• NC[C@H](O)c1ccc(O)c(O)c1 [Norepinephrine] = 68.5
• CCC[C@@H]1C[C@@H](C(=O)N[C@@H]([C@H]2O[C@H](SC)[C@H](O)[C@@H](O)[C@H]2O)[C@@H](C)O)N(C)C1 = 87.7
• NS(=O)(=O)c1cc(C(=O)O)c(NCc2ccco2)cc1Cl [Furosemide] = 97.3

###

List of 10 uM (% Quet) values.
# Tested on: acutely dissociated and purified rat OPCs
# TEST SUMMARY: Acute OL differentiation assay (MBP expression/cell, immunofluorescent image quantification)
# Format: cell-based
# TEST CONTEXT: test compound at 10 uM; NCC library screen, sheet "All OLga data"; relative to quetiapine
QUANTITY KIND: 10 uM (% Quet)

* CO[C@H]1O[C@@H]2O[C@@]3(C)CC[C@H]4[C@H](C)CC[C@@H]([C@H]1C)[C@@]24OO3 [Artemethe] | -21.6
* CC1CCN(CCCC(=O)c2ccc(F)cc2)CC1.Cl [Melperone hydrochloride] | 43.4
* COc1cc(C[C@@H](CO)[C@H](CO)Cc2ccc(O)c(OC)c2)ccc1O [Secoisolariciresinol] | 12.5
* CC1=C(C/C=C(\C)CCC[C@H](C)CCC[C@H](C)CCCC(C)C)C(=O)c2ccccc2C1=O [Phylloquinone] | -25.4
* O=c1cnn([C@@H]2O[C@H](CO)[C@@H](O)[C@H]2O)c(=O)[nH]1 [Azauridine] | -6.4
* COC(=O)N1CCN(C(=O)Cc2ccc(Cl)c(Cl)c2)C(CN2CCCC2)C1 (centres unmarked) [GR 89696] | 63.5
* CN(CCO)CC(O)Cn1cnc2c1c(=O)n(C)c(=O)n2C (centres unmarked) [Jupal] | 6.5
* C[C@]12CCC(=O)C=C1CC[C@@H]1[C@@H]2[C@@H](O)C[C@@]2(C)[C@H]1CC[C@]2(O)C(=O)COC(=O)CCC(=O)O [Cortisol succinate] | 21.7
